target: Polyunsaturated fatty acid 5-lipoxygenase (Rattus norvegicus); assay: Inhibitory activity against 5-lipoxygenase (5-LO) using broken rat […] leukemia cells (RBL-1) at 10 uM; format: cell-based
observable: inhibition (%)

Asked: For the compound CNC(=O)N(O)C(C)C#Cc1cc(-c2ccc(Cl)cc2)n(-c2ccc(OC)cc2)n1 (stereo unspecified) , report inhibition.
Given back: 79

Asked: Return the recorded inhibition value; entry: COc1ccc(-n2nc(C#CC(C)N(O)C(=O)c3cccnc3)cc2-c2ccc(C)cc2)cc1 (stereo unspecified)
Given back: 88

Asked: Please look at this compound and report its inhibition: COC(=O)N(O)C(C)C#Cc1cc(-c2ccc(Cl)cc2)n(-c2ccc(OC)cc2)n1 (stereo unspecified)
Given back: 77

Asked: Name the recorded inhibition of the item CCOC(=O)CCC(=O)N(O)C(C)C#Cc1cc(-c2ccc(CC)cc2)n(-c2ccc(OC)cc2)n1 (stereo unspecified) in your answer.
Given back: 97

Asked: Using the record for CCc1ccc(-c2cc(C#CC(C)N(O)C(=O)C(C)C)nn2-c2ccc(OC)cc2)cc1 (stereo unspecified) , state its measured inhibition.
Given back: 93

Asked: Specify measured inhibition for COc1ccc(-n2nc(C#CC(C)N(O)C(=O)c3ccco3)cc2-c2ccc(C)cc2)cc1 (stereo unspecified) .
Given back: 70

---

Biological target: Prostaglandin G/H synthase 1 (Ovis aries)
Sequence (whole entry): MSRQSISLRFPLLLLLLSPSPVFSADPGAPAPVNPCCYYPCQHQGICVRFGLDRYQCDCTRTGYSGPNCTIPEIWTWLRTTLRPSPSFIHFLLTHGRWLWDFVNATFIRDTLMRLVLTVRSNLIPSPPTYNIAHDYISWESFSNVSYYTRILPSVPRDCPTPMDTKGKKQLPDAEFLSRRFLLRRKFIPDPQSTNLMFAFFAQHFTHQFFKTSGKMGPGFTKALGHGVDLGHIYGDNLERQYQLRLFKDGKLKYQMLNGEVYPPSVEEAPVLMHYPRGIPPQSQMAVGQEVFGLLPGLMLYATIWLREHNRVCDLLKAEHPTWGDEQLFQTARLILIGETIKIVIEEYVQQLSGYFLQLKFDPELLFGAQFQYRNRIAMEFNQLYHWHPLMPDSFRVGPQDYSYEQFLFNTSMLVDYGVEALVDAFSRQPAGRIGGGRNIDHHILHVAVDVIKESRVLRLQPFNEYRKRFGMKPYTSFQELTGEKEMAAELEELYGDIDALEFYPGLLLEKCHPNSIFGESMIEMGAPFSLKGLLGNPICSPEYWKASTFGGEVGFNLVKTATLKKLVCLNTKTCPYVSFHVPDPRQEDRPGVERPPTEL
Test: Inhibitory activity against Cyclooxygenase using sheep seminal vesicle (SSV) enzyme (COX-1) at 10 uM
Format: tissue-based
observable: inhibition (%)

Below, each entry is followed by its recorded inhibition result.
Asked: Report its inhibition with Prostaglandin G/H synthase 1 (Ovis aries) as the test system: COc1ccc(-n2nc(C#CCN(O)C(=O)c3ccccc3)cc2-c2ccc(C)cc2)cc1
Given back: 52

Asked: Under Prostaglandin G/H synthase 1 (Ovis aries), report inhibition for COc1ccc(-n2nc(C#CCN(O)C(=O)c3ccncc3)cc2-c2ccc(C)cc2)cc1
Given back: 17

Asked: Fetch value of inhibition on Prostaglandin G/H synthase 1 (Ovis aries) for COC(=O)N(O)CC#Cc1cc(-c2ccc(C)cc2)n(-c2ccc(OC)cc2)n1 .
Given back: 74

Asked: Provide inhibition, recorded with Prostaglandin G/H synthase 1 (Ovis aries), of CCc1ccc(-c2cc(C#CC(C)N(O)C(=O)OC)nn2-c2ccc(OC)cc2)cc1 (stereo not drawn)
Given back: 21

Asked: Would you please give the reported inhibition of CCC(C#Cc1cc(-c2ccc(C)cc2)n(-c2ccc(OC)cc2)n1)N(O)C(N)=O (stereo not drawn) with Prostaglandin G/H synthase 1 (Ovis aries)?
Given back: 22

I = COc1ccc(-n2nc(C#CC(C(C)C)N(O)C(N)=O)cc2-c2ccc(Cl)cc2)cc1 (stereo not drawn)
II = CCOC(=O)C(=O)N(O)C(C)C#Cc1cc(-c2ccc(C)cc2)n(-c2ccc(OC)cc2)n1 (stereo not drawn)
III = COc1ccc(-n2nc(C#CC(C)N(O)C(=O)c3ccccc3)cc2-c2ccc(Cl)cc2)cc1 (stereo not drawn)
Asked: Rank by inhibition (largest to smallest). Form entry: labels listed in requested order.
Given back: II, I, III
(II: 66%, I: 38%, III: 5%)

---

Molecular target: Polyunsaturated fatty acid 5-lipoxygenase (Rattus norvegicus) (UniProt P12527)
Sequence (whole entry): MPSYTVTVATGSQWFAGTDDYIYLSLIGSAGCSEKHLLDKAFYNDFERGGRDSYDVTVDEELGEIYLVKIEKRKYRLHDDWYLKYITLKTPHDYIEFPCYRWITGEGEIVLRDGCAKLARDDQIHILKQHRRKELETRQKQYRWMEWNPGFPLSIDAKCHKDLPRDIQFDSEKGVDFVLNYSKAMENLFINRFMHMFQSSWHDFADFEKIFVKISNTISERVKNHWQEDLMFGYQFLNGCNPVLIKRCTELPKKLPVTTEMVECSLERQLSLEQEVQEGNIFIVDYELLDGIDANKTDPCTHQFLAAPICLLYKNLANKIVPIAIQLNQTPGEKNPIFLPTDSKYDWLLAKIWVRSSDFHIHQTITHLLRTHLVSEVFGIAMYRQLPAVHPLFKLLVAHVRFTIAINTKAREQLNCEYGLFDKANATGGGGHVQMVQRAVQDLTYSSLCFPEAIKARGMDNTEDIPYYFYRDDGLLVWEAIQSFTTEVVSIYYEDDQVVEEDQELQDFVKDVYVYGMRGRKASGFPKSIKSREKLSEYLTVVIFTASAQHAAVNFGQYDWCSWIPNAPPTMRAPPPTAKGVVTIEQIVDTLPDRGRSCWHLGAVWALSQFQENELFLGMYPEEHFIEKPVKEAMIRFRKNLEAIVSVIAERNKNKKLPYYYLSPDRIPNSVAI
Test: Inhibitory activity against 5-lipoxygenase (5-LO) using broken rat […] leukemia cells (RBL-1)at 10 uM
Type: cell-based
observable: inhibition (%)

Asked: Report inhibition for CCC(=O)N(O)CC#Cc1cc(-c2ccc(C)cc2)n(-c2ccc(OC)cc2)n1
Given back: 100

Asked: Complete the entry with inhibition for CCC(C#Cc1cc(-c2ccc(Cl)cc2)n(-c2ccc(OC)cc2)n1)N(O)C(N)=O (centres undefined)
Given back: 91

Asked: Give the reported value of inhibition for this record: CCOC(=O)CCC(=O)N(O)C(C)C#Cc1cc(-c2ccc(C)cc2)n(-c2ccc(OC)cc2)n1 (centres undefined)
Given back: 97

Asked: Return inhibition for the following molecule: CCCNC(=O)N(O)C(C)C#Cc1cc(-c2ccc(Cl)cc2)n(-c2ccc(OC)cc2)n1 (centres undefined)
Given back: 82

Asked: Give reported inhibition value for CCc1ccc(-c2cc(C#CC(C)N(O)C(=O)OC)nn2-c2ccc(OC)cc2)cc1 (centres undefined)
Given back: 78

Asked: Return inhibition for the following molecule: CCOC(=O)C(=O)N(O)C(C)C#Cc1cc(-c2ccc(C)cc2)n(-c2ccc(OC)cc2)n1 (centres undefined)
Given back: 71

Asked: In one line, give reported inhibition of the entry COc1ccc(-n2nc(C#CC(C(C)C)N(O)C(N)=O)cc2-c2ccc(Cl)cc2)cc1 (centres undefined) .
Given back: 90

Asked: Could you please provide reported inhibition for COc1ccc(-n2nc(C#CCN(O)C(=O)c3ccncc3)cc2-c2ccc(C)cc2)cc1 ? Thanks!
Given back: 89

Asked: Consider the molecule COc1ccc(-n2nc(C#CCN(O)C(=O)c3ccccc3)cc2-c2ccc(C)cc2)cc1 . State its measured inhibition.
Given back: 100

---

target: Cyclooxygenase (Rattus norvegicus, UniProt P35355+Q63921); assay: Inhibitory activity against Cyclooxygenase (COX) using broken rat […] leukemia cells (RBL-1); format: cell-based
observable: IC50 (nM)

Asked: Entry COc1ccc(-n2nc(C#CC(C)N(O)C(N)=O)cc2-c2ccc(C)cc2)cc1 (configuration not stated) needs its IC50 filled in; supply it.
Given back: 9400

Asked: Specify reported IC50 for the molecule shown: COC(=O)N(O)C(C)C#Cc1cc(-c2ccc(C)cc2)n(-c2ccc(OC)cc2)n1 (configuration not stated)
Given back: 140

Asked: Kindly indicate its recorded IC50. Item: CCC(C#Cc1cc(-c2ccc(C)cc2)n(-c2ccc(OC)cc2)n1)N(O)C(C)=O (configuration not stated)
Given back: 10

Asked: Hello, please tell me recorded IC50 for this one: COc1ccc(-n2nc(C#CC(C)N(O)C(=O)C(F)(F)F)cc2-c2ccc(C)cc2)cc1 (configuration not stated)
Given back: 50

Asked: Give the reported value of IC50 for this record: CCc1ccc(-c2cc(C#CC(C)N(O)C(C)=O)nn2-c2ccc(OC)cc2)cc1 (configuration not stated)
Given back: 60

Asked: Give the reported IC50 for this molecule. COc1ccc(-n2nc(C#CC(C)N(O)C(=O)C(C)C)cc2-c2ccc(C)cc2)cc1 (configuration not stated)
Given back: 40

a = COc1ccc(-n2nc(CCC(=O)N(C)O)cc2-c2ccc(Cl)cc2)cc1 [TEPOXALIN]
b = COc1ccc(-n2nc(C#CC(C)N(O)C(C)=O)cc2-c2ccc(C)cc2)cc1 (configuration not stated)
Asked: # min-compare on IC50 between a and b Response format: the label of the selected entry.
Given back: b

1 = COc1ccc(-n2nc(C#CC(C(C)C)N(O)C(N)=O)cc2-c2ccc(C)cc2)cc1 (configuration not stated)
2 = COc1ccc(-n2nc(C#CCN(O)C(N)=O)cc2-c2ccc(C)cc2)cc1
Asked: // compare measured IC50 between 1 and 2 ; output the lower one Refer to your chosen item by its label in the answer.
Given back: 2

These data points were gathered from ChEMBL document CHEMBL1131670.
